Assignment: determine reported melting point for the given compounds.

These solved cases illustrate the format of a correct answer.
Prompt line: Consider the compound CCC1C(=O)NCCN1C(N)=S (centres undefined) and give its measured melting point.
Response line: 216 to 218 °C

Prompt line: Now give it for Fc1cc(CBr)ccc1Br too.
Response line: 38 to 40 °C

Prompt line: Now give it for COc1ccc(C=C2CCCc3c2nc2ccccc2c3C(=O)O)cc1 too.
Response line: 157 to 159 °C

Below are 6 compounds. Give each one its melting point.
1. Cc1cc(C(=O)CCl)c(C)n1-c1ncn[nH]1
2. Cc1ccc(C(=O)C(O)c2ccc(C)cc2)cc1 (centres undefined)
3. O=C1C(Br)CCN1c1ccc(Cl)cc1 (centres undefined)
4. CCCNC(=O)c1ccc(Cl)cc1[N+](=O)[O-]
5. COc1ccc(Oc2ccc(CO)cc2)cc1
6. Clc1nnc(-c2cccc3ncccc23)s1

Response line:
1: 180 to 182 °C; 2: 88 to 90 °C; 3: 83 to 85 °C; 4: 107 to 109 °C; 5: 100 to 102 °C; 6: 143 to 145 °C

Below are 3 compounds. Give each one its melting point.
1. COC(=O)c1c(NC(=O)CCl)sc(C)c1C
2. O=C(O)C1CCC(n2cccc2)CC1 (centres undefined)
3. Cc1cccc2c(=O)n(CCC(=O)O)cnc12

Response line:
143 to 145 °C
143 to 145 °C
199 to 201 °C

====

Recorded Metric: melting point

Prompt line: Consider the compound NCC(O)c1ccc(OC(F)F)cc1 (stereo not drawn) and give its measured melting point.
Response line: 54 to 56 °C

Prompt line: Now give it for Nc1nnc(CC2CCCC2)o1 too.
Response line: 174 to 176 °C

Prompt line: Now give it for Nc1cnn(CC(=O)NCCO)c1 too.
Response line: 98 to 100 °C

Prompt line: Now give it for O=C(O)CCNS(=O)(=O)c1c(Cl)cccc1Cl too.
Response line: 119 to 121 °C

Prompt line: Now give it for Cc1[nH]c2c(F)cccc2c(=O)c1C too.
Response line: 284 to 286 °C

Prompt line: Now give it for NC(=O)CCn1ccc(N)n1 too.
Response line: 142 to 144 °C

Prompt line: Now give it for O=C(O)c1nnn(-c2ccccc2)c1C1CC1 too.
Response line: 174 to 176 °C

Query compound follows.
Prompt line: Consider the compound O=C(O)c1cncc(N2CCOCC2)c1 and give its measured melting point.
Response line: 258 to 260 °C

====

Assignment: determine reported melting point for the given compounds.

These solved cases illustrate the format of a correct answer.
Prompt line: Consider the compound O=C(NCc1ccc(C(=O)O)cc1)OCc1ccccc1 and give its measured melting point.
Response line: 190 to 192 °C

Prompt line: Now give it for Nc1ccc(N2CCOCC2)c(S(=O)(=O)Nc2cc(Cl)ccc2Cl)c1 too.
Response line: 66 to 68 °C

Prompt line: Now give it for CNS(=O)(=O)c1cccc(F)c1 too.
Response line: 58 to 60 °C

Prompt line: Now give it for Nc1ccc2nc(N)ccc2c1 too.
Response line: 213 to 215 °C

Below are 5 compounds. Give each one its melting point.
1. Cc1cc2occ(CC(=O)O)c2cc1C
2. CC(C)(C(N)=S)c1ccccc1
3. O=C(CCl)c1ccc2c(c1)COC2
4. N#Cc1ccc(Oc2cccnc2)cc1
5. O=C(O)c1c[nH]c2nccc(Cl)c12

Response line:
1: 133 to 135 °C; 2: 99 to 101 °C; 3: 109 to 111 °C; 4: 50 to 52 °C; 5: 189 to 191 °C
